Hello, the source for this data is ChEMBL document CHEMBL4138247, in case you need it.

# Test system: FaDu
# ASSAY NOTES: Antiproliferative activity against human FADU cells after 96 hrs by SRB assay
# Format: functional, cell-based
pIC50: −log10 of the molar value.
List of pIC50 values.

// below: answered compounds
- SMILES STRING: "C/C(=C\\CC/C(C)=C/CC[C@@H]1[C@@]2(C)CCC(=O)C(C)(C)[C@@H]2CC[C@@]1(C)O)CC/C=C(\\C)C(=O)OCCOC(=O)/C(C)=C/CC/C(C)=C/CC/C(C)=C/CC[C@@H]1[C@@]2(C)CCC(=O)C(C)(C)[C@@H]2CC[C@@]1(C)O"
  EXPERIMENTAL SYSTEM: "FaDu"
  pIC50: "< 4.52"
- SMILES STRING: "C/C(=C\\CC/C(C)=C/CC[C@@H]1[C@@]2(C)CCC(=O)C(C)(C)[C@@H]2CC[C@@]1(C)O)CC/C=C(\\C)C(=O)OCCCCOC(=O)/C(C)=C/CC/C(C)=C/CC/C(C)=C/CC[C@@H]1[C@@]2(C)CC[C@H](O)C(C)(C)[C@@H]2CC[C@@]1(C)O"
  EXPERIMENTAL SYSTEM: "FaDu"
  pIC50: 4.55

Attention now shifts to the item below.
Any idea what its pIC50 is? The compound is `C/C(=C\CC/C(C)=C/CC[C@@H]1[C@@]2(C)CCC(=O)C(C)(C)[C@@H]2CC[C@@]1(C)O)CC/C=C(\C)C(=O)OCCCCOC(=O)/C(C)=C/CC/C(C)=C/CC/C(C)=C/CC[C@@H]1[C@@]2(C)CCC(=O)C(C)(C)[C@@H]2CC[C@@]1(C)O`
< 4.52
